Notes on pIC50 obtained with Inositol polyphosphate multikinase (Homo sapiens, UniProt Q8NFU5).
Sequence (Q8NFU5 whole entry): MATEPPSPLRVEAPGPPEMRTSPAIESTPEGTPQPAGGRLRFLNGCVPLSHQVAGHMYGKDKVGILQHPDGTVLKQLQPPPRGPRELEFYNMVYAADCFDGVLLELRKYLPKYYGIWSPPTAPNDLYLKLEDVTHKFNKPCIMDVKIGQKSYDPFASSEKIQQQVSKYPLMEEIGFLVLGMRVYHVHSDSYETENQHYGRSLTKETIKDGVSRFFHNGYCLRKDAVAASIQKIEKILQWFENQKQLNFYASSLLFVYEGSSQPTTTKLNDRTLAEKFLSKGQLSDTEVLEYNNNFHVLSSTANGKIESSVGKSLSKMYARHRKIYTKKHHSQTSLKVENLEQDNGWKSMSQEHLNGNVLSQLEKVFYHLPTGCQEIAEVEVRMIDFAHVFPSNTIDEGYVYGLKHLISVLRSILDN
Answers are plain numbers, as −log10 of the molar value.

// known answers, use as guide
Sample `O=c1c(O)c(-c2ccc(O)c(O)c2)oc2cc(O)cc(O)c12` — what was its pIC50?
5.64

Look up pIC50: `COc1cc(-c2oc3cc(O)cc(O)c3c(=O)c2O)ccc1O`
5.66

Tell me the measured pIC50 of `O=c1cc(-c2ccc(O)c(O)c2)oc2cc(O)cc(O)c12` , please.
5.26

Report pIC50 for each item below.
1. O=c1c(O)c(-c2cc(O)c(O)c(O)c2)oc2cc(O)cc(O)c12
2. O=c1cc(-c2ccc(O)cc2)oc2cc(O)cc(O)c12

1. 5.96
2. 4.54
